ASSAY_EXPLANATION: binders of probe aFSTL3 on microarray, primary screen, stem cell growth factor project, biochemical, small-molecule microarray, fluorescence 635/667 (AID 1064);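 also: measures binding of the biotinylated anti-FSTL3 antibody to printed compounds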
MEASUREMENT_CONTEXT: higher = more signal
QUANTITY_MEASURED: composite z-score
Numbers only.

Could you report composite z-score for every entry in the following list?
1. O=C1O[C@@H](c2ccccc2)[C@@H](c2ccccc2)N2[C@@H](c3ccc(OCCO)cc3)[C@]3(C(=O)Nc4ccccc43)[C@@H](C(=O)O)[C@H]12
2. CC(C)C[C@@H]1NC(=O)[C@@H]2C[C@H](C(=O)NCCCCN(C)C)[C@H](c3cccc(OCCO)c3)N2C1=O
3. CN1C(=O)C2C=CC(C(O)C#Cc3ccccc3)N(Nc3ccccc3)C2C1=O (configuration not stated)
4. O=C1NC(=O)C2C1C=CC(C(O)c1c(F)cccc1Cl)N2Nc1ccc(Cl)cc1Cl (configuration not stated)

Reply text:
0.161
0.0116
0.247
1.38

Could you report composite z-score for every entry in the following list?
1. C=CCN1C(=O)[C@@]2(O[C@@H](CCn3cc([C@H](O)c4ccccc4)nn3)[C@H]([Si](C)(C)c3ccc(OC)cc3)[C@H]2C)c2cc(N3CCC3=O)ccc21
2. COc1ccc([Si](C)(C)[C@@H]2[C@@H](CC(=O)N(CCO)Cc3ccccc3)O[C@]3(C(=O)N(Cc4cccc(N5CCOC5=O)c4)c4ccccc43)[C@H]2C)cc1
3. CN(C)C(=O)[C@]1(CCS(=O)(=O)c2ccccc2)N=C(c2ccc(OCCCO)cc2)O[C@@H]1c1ccccc1N=[N+]=[N-]

Reply text:
1. 0.211
2. -0.0388
3. 0.169

====

Please go through the items and note down their z-score.
ASSAY_EXPLANATION: CREB reporter modulators under forskolin, primary screen, cell-based, PC12, CRE-LacZ reporter, forskolin-stimulated (AID 1146);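 also: PC12 cells with 6xCRE LacZ reporter stimulated by forskolin 10 µM; beta-galactosidase reporter signal reflecting CREB driven transcription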
MEASUREMENT_CONTEXT: luminescence, 4.5 h, higher = more signal, called active from +8 up or from −8 down
The source made the active and inactive calls.

Example entries begin here.
{"MOLECULE": "C=CC[C@]1(C(=O)O)COC(c2ccc(OCCCO)cc2)=N1", "z-score": "0.123 (inactive)"}
{"MOLECULE": "Cc1ccc(S[C@]2(C(=O)O)CC(=O)N(Cc3ccccc3Cl)[C@@H]2c2ccc(CO)cc2I)cc1", "z-score": "3 (inactive)"}
{"MOLECULE": "CC(=O)NCCCC[C@@H]1NC(=O)[C@H]2C[C@@H](C(=O)NCCCC[N+](C)(C)C)[C@@H](c3cccc(OCCO)c3)N2C1=O", "z-score": "0.451 (inactive)"}
{"MOLECULE": "C=CCOC(=O)[C@H]1[C@@H]2C(=O)O[C@@H](c3ccccc3)[C@@H](c3ccccc3)N2[C@@H](c2ccc(OCCOC(=O)[C@@H]3C[C@@H]4C(=O)N5CCC[C@H]5C(=O)N4[C@@H]3c3ccc(O)cc3)cc2)[C@]12C(=O)Nc1ccc(I)cc12", "z-score": "0.016 (inactive)"}
{"MOLECULE": "O=C(NCc1ccccc1)[C@@H]1c2ccccc2C(=O)N(Cc2ccccc2C(F)(F)F)[C@H]1c1ccc(CO)cc1", "z-score": "-0.0897 (inactive)"}
{"MOLECULE": "O[C@@H](Cc1ccccc1)[C@@H](/C=C/C1CC1)N(CC#Cc1ccccc1)Cc1cccc(Cl)c1", "z-score": "-0.295 (inactive)"}
{"MOLECULE": "C=C(COC)/C(=C/C[C@H](OC(=O)c1ccncc1)c1ccccc1OCCO)c1cnc2ccccc2c1", "z-score": "1.42 (inactive)"}
{"MOLECULE": "CC(C)(C)OC(=O)CC[C@@]1(C(=O)NCc2ccccc2)N=C(c2ccc(OCCCO)cc2)O[C@@H]1c1ccccc1N=[N+]=[N-]", "z-score": "-0.947 (inactive)"}
{"MOLECULE": "COC(=O)[C@@]1(Cc2ccc(OC)cc2)[C@H]2c3cc(C(=O)N4CCCC4)n(Cc4cccc5ccccc45)c3C[C@H]2CN1C(=O)c1ccccc1", "z-score": "0.259 (inactive)"}
{"MOLECULE": "C=CCN1C(=O)[C@@]2(O[C@@H](CCn3cc([C@H](O)c4ccccc4)nn3)[C@H]([Si](C)(C)c3ccc(OC)cc3)[C@H]2C)c2cc(N3CCC3=O)ccc21", "z-score": "-1.02 (inactive)"}

Could you report z-score for every entry in the following list?
1. C=C(C)[C@@H]1CC=C(C(O)C2C=CC3C(=O)N(c4ccccc4)C(=O)C3N2Nc2ccccc2F)CC1 (some centres undefined)
2. O=C(CS)NCCCCCCNC(=O)[C@H]1C[C@H]2C(=O)N[C@@H](Cc3ccccc3)C(=O)N2[C@H]1c1ccc(O)cc1
3. COC(=O)C(CC#Cc1ccc2c(c1)[C@]1(C(=O)N2)[C@H](c2ccccc2OCCO)N2[C@H](c3ccccc3)[C@H](c3ccccc3)OC(=O)[C@H]2[C@@H]1C(=O)NC[C@H](O)c1ccccc1)C(=O)OC
4. COC(=O)C1=CC(CCCO)=CC(C2CC2)N(C)C=C1C(=O)OC (centres undefined)

Reply text:
1: 0.493 (inactive); 2: 0.368 (inactive); 3: 0.717 (inactive); 4: 0.214 (inactive)
